Test: yeast display, Sf9 membrane polyspecificity reagent, FACS + sequencing; frameworks hold sequencing errors
endpoint: polyreactivity (PSR sort gate)

seq_string=QVQLVESGGGLVQAGGRLRFSCAASGSIFEYYTMGWYRQAPGKERELVAAISDGGSTYYADSVKGRFTISRDNAKNTVYLQMNSLKPDDTAFYYCAAEYQQDFWVAVDYWGQGTQLTVSS endpoint="polyreactivity (PSR sort gate)" measurement="low polyreactivity"
seq_string=QVQLVESGGGLVQAGGSLRLSCAASGRIFTINAMGWYRQAPGKERELVAVITRGGSTKYADSVKGRFTISRDNAKNTVYLQMNSLKPEDTAVYYCAARVRAGHGKNGYWGQGTQVTVSS endpoint="polyreactivity (PSR sort gate)" measurement="high polyreactivity"
seq_string=QVQLVESGGGLVQAGGSLRLSCAASGSTFRIYAMGWYRQAPGKERELVAGITRRGGSTFYADSVKGRFTISRDNAKNTVYLQMNSLKPEDTAVYYCAARFRGGMDYWGQGTQVTVSS endpoint="polyreactivity (PSR sort gate)" measurement="high polyreactivity"
seq_string=QVQLVESGGGLVQAGGSLSLSCAASGSTFVINAMGWYRPAPRKERELLAAIRGRCVSTSYADSVKGRFTISRDIAKNTVYLQMNSLKPEDTEVYYCAADSRTGYYYWGQGTQVTVSS endpoint="polyreactivity (PSR sort gate)" measurement="high polyreactivity"
seq_string=QVQLVESGGGLVQAGGSLRLSCAASGSSLTRNDMGWHRLAPGKERELVAAISFSGSDTYYADSVKGRFTISRDNAKNTVYLQMNSLKPEDTAVYYCAAEYGGYSKYLFIGRYYWGQGTQVTVSS endpoint="polyreactivity (PSR sort gate)" measurement="low polyreactivity"
seq_string=QVQLVESGGGLVQAGGSLRLSCAASGRIFLLNPMGWNRQATGKERELVARNSSGRTYYADSVKGRFTISRVNAKNTVYLHMKSLKPEDTAVYYCNATVSSSKYRYFYVNPYDYWGQGTQVTVSS endpoint="polyreactivity (PSR sort gate)" measurement="low polyreactivity"
seq_string=QVQLVESGGGLVQAGGSLRLSCAASGSTFGFYTMGWYRQAPGKERELVAAISWSTGRTYYADSVKGRFTISRDNAKNTVYLQMNSLKPEDTAVYYCAARALDKYRFGGRYDYWGQGTQVTVSS endpoint="polyreactivity (PSR sort gate)" measurement="low polyreactivity"
seq_string=QVQLVESGGGLVQAGGSLRLSCAAYGRTFEINAMGWYRQATGKERELVAAISWDDGSTYYADSVKGRFTISRDNAKNTVYLQMNSLKPEDTAVYYCAAESPLHYTHRRGYEYWGQGTQVTVSS endpoint="polyreactivity (PSR sort gate)" measurement="low polyreactivity"
seq_string=QVQLVESGGCLVQAGGSLRLSCAASGSIFVSYAMGWYRQAPGTERELVAAITGRTGSTYYADSVKGRFTISRDNAQNTVYLQMNSLKPEDTEVYYCAARHKPHHRYDYWGQGTQVTVSS endpoint="polyreactivity (PSR sort gate)" measurement="low polyreactivity"
seq_string=QVHLVESGGGLVQAGGSLRLSCAASGSTFDDYVMGWYRQAPGKESELVAAITRSGTSTYYADSVKGRFTISRDNAKNTVYLQMNSLKPEETAVYYCAAGPFGLKPYTLGYNYWGQGTQVTVSS endpoint="polyreactivity (PSR sort gate)" measurement="high polyreactivity"
seq_string=QVQLVESGGGLVQAGGSLRLSCAASGFIFNTMGWYRQAPGKERELVATISWSDGSTYYADSVKGRFTISRDNAKNTVYLQMNSLKPEDTAVYYCAADSRPWGSSMDSWGQGTQVTVSS endpoint="polyreactivity (PSR sort gate)" measurement="low polyreactivity"
seq_string=QDQLVESGGGLVQAGVSLRLICPASGLTFYTYAMGSYRQAPGKERELVAAIRRRGGRTYYADSVKGRFTISRDNAKNTVFLQMNSLKPEDTAVYYCAADYSTLFKYDYWGQGTQVTVSS endpoint="polyreactivity (PSR sort gate)" measurement="low polyreactivity"
seq_string=QVQLVESGGGLVQAGGSLRLSCAASGITFYRYAMRWYRQAPGKERELVAAISRSGGSTYYADSVKGRFTISRDNAKNTVYLQMNILKPEDTAVYYCAAYILGNRDGYDYWGQGTQVTVSS endpoint="polyreactivity (PSR sort gate)" measurement="high polyreactivity"
seq_string=QVQLVESGGGLVQAGFSLRLSCAASGFTFKYYAMGWYRQAPGKERELVAAISSGGSTYYADSVKGRFTISRDNAKNTVYLQMNSLKPEDTAVYYCNRRFAPFWGRYGYWGQGTKVTVSS endpoint="polyreactivity (PSR sort gate)" measurement="high polyreactivity"
seq_string=QVQLVESGGGLVQAGGSLRLSCAASGFTFYSYAMGWYRQAPGKERELVASISQSGGRTYYADSVKGRFTISRDNAKNTVYLQMNSLKPEDTAVYYCARQRSYGRSSYSYGYDYWGQGTQVTVSS endpoint="polyreactivity (PSR sort gate)" measurement="high polyreactivity"
seq_string=QVQLEDSGGGLVQAGGSLPLSCAASGLTFYVNARGWNRQAPGKERELVAGIDSGGSTYYAASVKGRFTISRDNAKNTVYLQMNSLKPEDTAVYYCAADEGYVWPYYGWGFGKYDYWGEGTQVTVSS endpoint="polyreactivity (PSR sort gate)" measurement="low polyreactivity"
seq_string=QVQLVESVGGLVQAGGTLRLSCAASGRIFCIYAMGWYRPAPGKVRSLVATITGSGGSTYYADSVKGRFTISRDNAKNTVYLQLHSLKPEDTAVYYCAARYPVSGGYDYWGQGNQVTVSS endpoint="polyreactivity (PSR sort gate)" measurement="low polyreactivity"
seq_string=QVQLVESGGGLVQAGGSLSLSCAASGRIFPYNDLGWYRQAPGKERELVADINSGDSTNYADSVKGRFTISRDNAKNTVYLQMNSLKPEDTAVYYCAAGYVRYPGVIDEYWGQGTQVTVSS endpoint="polyreactivity (PSR sort gate)" measurement="low polyreactivity"
seq_string=QVQLVESGGGLVQAGGSLRLSCAASGFIFKTYAMGWYRQAPGKERELVARISKSSGNTYYADSVKGRFTISRDNAKNTVYLQMNSLKPEDTAVYYCNRRHTSKNAYTSPSEYDYWGQGTQVTVSS endpoint="polyreactivity (PSR sort gate)" measurement="low polyreactivity"
seq_string=QVQLVESGGGLVQAGGSLRLSCAASGRTSWVNAMGWYRQAPGKERELVAAIVSGGTTKYADSVKGRFTISRDNAKNTVYLQMNSMKPEDTAVYYCAAALGLGGQKTRRYEYWGQGTQVTVSS endpoint="polyreactivity (PSR sort gate)" measurement="high polyreactivity"
seq_string=QVQLVESGGGLVQAGGSLRLSCAASGITLLYYAMGWYRQAPGKERELVAAISRRGGSTYYADSVKGRFTISRDNAKNTVYLQMNSLKPEDTAVYYCAAYSPYGGYHYLYDYWGQGTQVTVSS endpoint="polyreactivity (PSR sort gate)" measurement="high polyreactivity"
